System: HEPG2
Assay: MTS cytotoxicity assay
Type: cell-based
Conditions: Homo sapiens, 48 h, triplicate, read-out: IC50 ± SEM HEPG2
readout_name: pIC50
Notebook: values listed as pIC50 are -log10 of the concentration (mol/L).

compound: COc1ccc([C@H]2c3c(/C=C/c4ccc(O)cc4)cc(OC)c(C)c3O[C@@H]3Oc4cc(O)cc(O)c4C(=O)[C@@H]32)cc1 [Compound 10, prosperin C]
readout_name: pIC50
number: 4.62

Let's switch to this compound now.
*Q* Can you share its pIC50? I mean this compound: COc1cc(O)cc(/C=C/c2ccc(O)cc2)c1 [Compound 2, pinostilbene]
*A* 4.29

====

Below, each entry is listed alongside its reported IC50.
Tested on: HEPG2
Test: MTS cytotoxicity assay
Format: cell-based
Settings: Homo sapiens, 48 h, triplicate, read-out: IC50 ± SEM HEPG2

Some solved cases for reference:
compound: COc1cc(/C=C/c2cc(O)c(C)c(O)c2)ccc1O [Compound 3, scillabene A]
IC50: > 100 µM
--
compound: O=C1/C(=C/c2ccc(O)cc2)COc2cc(O)cc(O)c21 [Compound 4, (E)-4′-O-demethyleucomin]
IC50: > 100 µM

*Q* Notebook entry, HEPG2 assay: IC50 of COc1cc(/C=C/c2ccc(O)cc2)cc(O)c1C [Compound 1] = ?
*A* 37.6 µM

Value source: paper PMC11877502
